TEST TARGET: PKCγ (Homo sapiens, UniProt P05129)
Construct: made in house; host or cells: HEK-293T
ASSAY REMARKS: In vitro kinase assay (32P-MBP phosphorylation by immunoprecipitated HA-tagged PKC)
Type: biochemical
PROTOCOL CONDITIONS: MBP substrate, 100 μM cold ATP, 30 min at 32 °C, read-out: IC50 Values
READOUT NAME: pIC50
Schema: pIC50 number; meaning minus log10 of the concentration expressed in molar units.

Query block: pIC50 for CC1CCC(c2ccoc2)N2C1CCC1(CSC3(CCC4C(C)CCC(c5ccoc5)N4C3O)C1)C2O (stereo not shown) [DTBN, 6,6′-dihydroxythiobinupharidine] ?
Result block: 6.77

###

TEST TARGET: PKCζ (Homo sapiens)
Construct: made in house; host or cells: HEK-293T
Sequence (Q05513 1-592): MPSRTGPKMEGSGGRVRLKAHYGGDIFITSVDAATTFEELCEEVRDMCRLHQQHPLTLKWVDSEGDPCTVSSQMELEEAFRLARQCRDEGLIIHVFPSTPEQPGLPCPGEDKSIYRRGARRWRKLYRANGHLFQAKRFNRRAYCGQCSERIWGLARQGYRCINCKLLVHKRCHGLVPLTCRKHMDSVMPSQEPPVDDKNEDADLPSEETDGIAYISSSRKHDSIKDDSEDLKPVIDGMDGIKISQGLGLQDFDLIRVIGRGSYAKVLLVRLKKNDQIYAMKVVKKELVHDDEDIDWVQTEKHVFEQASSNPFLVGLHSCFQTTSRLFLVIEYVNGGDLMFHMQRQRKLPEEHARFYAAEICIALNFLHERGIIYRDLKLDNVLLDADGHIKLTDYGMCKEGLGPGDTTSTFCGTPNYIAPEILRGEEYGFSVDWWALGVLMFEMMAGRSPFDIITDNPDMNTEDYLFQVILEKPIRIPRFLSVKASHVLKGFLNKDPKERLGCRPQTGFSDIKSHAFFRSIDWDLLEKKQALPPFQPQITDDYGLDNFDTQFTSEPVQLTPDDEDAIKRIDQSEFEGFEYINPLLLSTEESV
ASSAY REMARKS: In vitro kinase assay (32P-MBP phosphorylation by immunoprecipitated HA-tagged PKC)
Format: biochemical
PROTOCOL CONDITIONS: MBP substrate, 100 μM cold ATP, 30 min at 32 °C, read-out: IC50 Values
READOUT NAME: pIC50
API: returns pIC50 as number; meaning -log10 of concentration in mol/L.

Query block: pIC50 lookup needed for CC1CCC(c2ccoc2)N2C1CCC1(CSC3(CCC4C(C)CCC(c5ccoc5)N4C3O)C1)C2O (stereo not shown) [DTBN, 6,6′-dihydroxythiobinupharidine] , thanks.
Result block: 4.73

###

TEST TARGET: PKCδ (Homo sapiens)
Construct: made in house; host or cells: HEK-293T
ASSAY REMARKS: In vitro kinase assay (32P-MBP phosphorylation by immunoprecipitated HA-tagged PKC)
Format: biochemical
PROTOCOL CONDITIONS: MBP substrate, 100 μM cold ATP, 30 min at 32 °C, read-out: IC50 Values
READOUT NAME: IC50

Query block: Entry under review: CC1CCC(c2ccoc2)N2C1CCC1(CSC3(CCC4C(C)CCC(c5ccoc5)N4C3O)C1)C2O (stereo not shown) [DTBN, 6,6′-dihydroxythiobinupharidine] . Reported IC50?
Result block: > 19 µM

###

TEST TARGET: PKCη (Homo sapiens)
Sequence (P24723 whole entry): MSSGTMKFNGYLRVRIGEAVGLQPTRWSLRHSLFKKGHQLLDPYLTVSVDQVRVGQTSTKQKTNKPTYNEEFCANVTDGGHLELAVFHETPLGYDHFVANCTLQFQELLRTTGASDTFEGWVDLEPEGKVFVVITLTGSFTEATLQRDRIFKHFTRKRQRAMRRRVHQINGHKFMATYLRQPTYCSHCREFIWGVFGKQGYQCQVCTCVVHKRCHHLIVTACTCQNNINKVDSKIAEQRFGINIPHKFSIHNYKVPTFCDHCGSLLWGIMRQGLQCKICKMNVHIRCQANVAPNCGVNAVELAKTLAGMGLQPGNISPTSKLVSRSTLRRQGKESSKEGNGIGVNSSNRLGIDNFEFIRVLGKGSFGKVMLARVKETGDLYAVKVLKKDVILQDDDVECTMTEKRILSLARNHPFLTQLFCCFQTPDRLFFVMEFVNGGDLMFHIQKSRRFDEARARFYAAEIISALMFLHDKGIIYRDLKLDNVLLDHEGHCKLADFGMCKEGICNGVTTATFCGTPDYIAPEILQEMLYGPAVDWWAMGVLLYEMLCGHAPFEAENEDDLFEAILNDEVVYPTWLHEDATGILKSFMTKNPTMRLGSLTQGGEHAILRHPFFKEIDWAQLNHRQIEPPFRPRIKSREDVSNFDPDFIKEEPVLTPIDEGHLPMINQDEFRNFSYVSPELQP
ASSAY REMARKS: In vitro kinase assay (32P-MBP phosphorylation by immunoprecipitated HA-tagged PKC)
Format: biochemical
PROTOCOL CONDITIONS: MBP substrate, 100 μM cold ATP, 30 min at 32 °C, read-out: IC50 Values (μg/mL)
pIC50: −log10 of the molar value.
READOUT NAME: pIC50

Query block: Recorded pIC50 for CC1CCC(c2ccoc2)N2C1CCC1(CSC3(CCC4C(C)CCC(c5ccoc5)N4C3O)C1)C2O (stereo not shown) [DTBN, 6,6′-dihydroxythiobinupharidine] , please?
Result block: < 4.72

###

TEST TARGET: UniProt P24723
ASSAY REMARKS: In vitro kinase assay (32P-MBP phosphorylation by immunoprecipitated HA-tagged PKC)
Type: biochemical
PROTOCOL CONDITIONS: MBP substrate, 100 μM cold ATP, 30 min at 32 °C, read-out: IC50 Values
pIC50: −log10 of the molar value.
READOUT NAME: pIC50

Query block: Provide value of pIC50 for this record tested with UniProt P24723: CC1CCC(c2ccoc2)N2C1CCC1(CSC3(CCC4C(C)CCC(c5ccoc5)N4C3O)C1)C2O (stereo not shown) [DTBN, 6,6′-dihydroxythiobinupharidine]
Result block: < 4.72

###

TEST TARGET: PKCδ (Homo sapiens, UniProt Q05655)
Construct: made in house; host or cells: HEK-293T
Sequence (Q05655 whole entry): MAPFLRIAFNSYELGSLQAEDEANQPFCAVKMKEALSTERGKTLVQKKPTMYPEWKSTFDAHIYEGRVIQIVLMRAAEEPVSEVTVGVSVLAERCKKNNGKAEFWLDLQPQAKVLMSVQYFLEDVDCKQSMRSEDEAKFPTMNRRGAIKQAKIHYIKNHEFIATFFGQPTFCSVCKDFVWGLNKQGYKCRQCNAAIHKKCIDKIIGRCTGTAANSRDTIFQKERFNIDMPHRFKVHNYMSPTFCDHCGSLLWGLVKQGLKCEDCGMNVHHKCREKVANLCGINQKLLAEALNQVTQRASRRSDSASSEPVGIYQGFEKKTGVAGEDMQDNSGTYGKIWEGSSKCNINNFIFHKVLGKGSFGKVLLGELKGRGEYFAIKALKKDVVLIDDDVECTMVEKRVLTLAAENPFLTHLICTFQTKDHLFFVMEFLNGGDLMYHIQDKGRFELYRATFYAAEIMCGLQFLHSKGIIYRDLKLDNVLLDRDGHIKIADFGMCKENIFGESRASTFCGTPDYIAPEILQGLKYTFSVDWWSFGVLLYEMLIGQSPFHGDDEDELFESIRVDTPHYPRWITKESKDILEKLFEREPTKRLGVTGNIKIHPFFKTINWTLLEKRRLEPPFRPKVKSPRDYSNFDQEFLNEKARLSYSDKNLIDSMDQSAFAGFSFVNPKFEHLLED
ASSAY REMARKS: In vitro kinase assay (32P-MBP phosphorylation by immunoprecipitated HA-tagged PKC)
Format: biochemical
PROTOCOL CONDITIONS: MBP substrate, 100 μM cold ATP, 30 min at 32 °C, read-out: IC50 Values (μg/mL)
pIC50: −log10 of the molar value.
READOUT NAME: pIC50

Query block: Hello, I am looking for reported pIC50 with PKCδ (Homo sapiens, UniProt Q05655) for CC1CCC(c2ccoc2)N2C1CCC1(CSC3(CCC4C(C)CCC(c5ccoc5)N4C3O)C1)C2O (stereo not shown) [DTBN, 6,6′-dihydroxythiobinupharidine] . Could you help?
Result block: < 4.72

###

TEST TARGET: PKCε (Homo sapiens)
Construct: made in house; host or cells: HEK-293T
Sequence (Q02156 whole entry): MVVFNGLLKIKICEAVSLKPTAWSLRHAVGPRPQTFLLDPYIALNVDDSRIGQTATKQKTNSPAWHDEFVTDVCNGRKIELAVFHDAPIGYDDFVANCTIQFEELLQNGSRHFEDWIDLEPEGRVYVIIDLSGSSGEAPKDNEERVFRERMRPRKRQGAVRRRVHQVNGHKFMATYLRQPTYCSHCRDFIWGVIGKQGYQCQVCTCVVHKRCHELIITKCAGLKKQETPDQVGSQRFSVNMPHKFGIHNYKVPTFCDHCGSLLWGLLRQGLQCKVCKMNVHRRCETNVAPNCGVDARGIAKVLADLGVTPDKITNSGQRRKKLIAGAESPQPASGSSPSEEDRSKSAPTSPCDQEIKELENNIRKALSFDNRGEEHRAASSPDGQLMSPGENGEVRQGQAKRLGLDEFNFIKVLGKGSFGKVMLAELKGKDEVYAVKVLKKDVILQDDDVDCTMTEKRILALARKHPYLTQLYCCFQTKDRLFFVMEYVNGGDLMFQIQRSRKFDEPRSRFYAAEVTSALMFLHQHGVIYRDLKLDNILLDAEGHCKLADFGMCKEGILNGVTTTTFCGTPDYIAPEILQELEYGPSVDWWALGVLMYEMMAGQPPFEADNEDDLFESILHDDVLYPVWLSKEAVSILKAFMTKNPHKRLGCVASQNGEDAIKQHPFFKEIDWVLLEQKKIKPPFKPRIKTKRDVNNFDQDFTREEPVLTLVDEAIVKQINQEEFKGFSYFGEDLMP
ASSAY REMARKS: In vitro kinase assay (32P-MBP phosphorylation by immunoprecipitated HA-tagged PKC)
Assay type: biochemical
PROTOCOL CONDITIONS: MBP substrate, 100 μM cold ATP, 30 min at 32 °C, read-out: IC50 Values
READOUT NAME: pIC50
# pIC50 is unitless: minus log10 of the molar concentration; print number only

Query block: Name the reported pIC50 value associated with the compound CC1CCC(c2ccoc2)N2C1CCC1(CSC3(CCC4C(C)CCC(c5ccoc5)N4C3O)C1)C2O (stereo not shown) [DTBN, 6,6′-dihydroxythiobinupharidine]
Result block: 4.85

###

TEST TARGET: PKCα (Homo sapiens)
Construct: made in house; host or cells: HEK-293T
ASSAY REMARKS: In vitro kinase assay (32P-MBP phosphorylation by immunoprecipitated HA-tagged PKC)
Format: biochemical
PROTOCOL CONDITIONS: MBP substrate, 100 μM cold ATP, 30 min at 32 °C, read-out: IC50 Values
READOUT NAME: pIC50
Expect pIC50 as a plain number equal to -log10 of the molar concentration.

Query block: Returns the measured pIC50 for the input molecule. Input: CC1CCC(c2ccoc2)N2C1CCC1(CSC3(CCC4C(C)CCC(c5ccoc5)N4C3O)C1)C2O (stereo not shown) [DTBN, 6,6′-dihydroxythiobinupharidine]
Result block: 6.76
